Molecular target: T1, Human IL-11 (human, UniProt P20809 22-199); also: test concentration or dose not given here
T1 sequence: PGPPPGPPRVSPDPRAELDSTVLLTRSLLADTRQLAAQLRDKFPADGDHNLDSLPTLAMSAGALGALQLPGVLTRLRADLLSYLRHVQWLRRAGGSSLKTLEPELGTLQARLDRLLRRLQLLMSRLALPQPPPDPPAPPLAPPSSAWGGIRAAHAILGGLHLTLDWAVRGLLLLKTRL
Test: cell-based or functional assay
measurement.label: MMP2 production, Experiment 2 (human atrial fibroblasts + TGFB1)

See these solved cases before continuing.
Incoming: Please give the measured MMP2 production, Experiment 2 (human atrial fibroblasts + TGFB1) for this binder: YU100-H04 (antibody) QVQLVESGGGVVQPGRSLRLSCAASGFTFSSYAMHWVRQAPGKGLEWVAVISYDGSNKYYADSVKGRFTISRDNSKNTLYLQMNSLRAEDTAVYYCARIMGYDYGDYDVVDYWGQGTLVTVSSGSASAPKLEEGEFSEARVQSALTQPASVSGSPGQSITISCTGTSSDIGVYNYVSWYQQHPGKAPKLMIYDVSKRPSGVPDRFSGSKSGNTASLTISGLQAEDEADYYCCSYAGSYTWVFGGGTKLTVL
Outgoing: 48.7 ng/mL

Incoming: Suppose we examine the binder YU112-E07 (antibody) QVQLVQSGGGVVQPGRSLRLSCAASGFTFGSYGMHWVRQAPGKGLEWVAVISYDGSNKYYADSVKGRFTISRDNSKNTLYLQMNSLRAEDTAVYYCAKGSYYFDYWGQGTLVTVSSGSASAPKLEEGEFSEARVEIVMTQSPDSLAVSLGERATINCKSSQSVNSAYLAWYQHKPGQPPRLLIYGASRRVTGVPDRFSGSGSGTDFTLTISSLQPEDFATYYCQQSYSDPRWTFGQGTKVEIK ; what MMP2 production, Experiment 2 (human atrial fibroblasts + TGFB1) value has been reported?
Outgoing: 49.1 ng/mL

Others:
Incoming: Which MMP2 production, Experiment 2 (human atrial fibroblasts + TGFB1) is reported for this binder? YU100-E11 (antibody) QVQLVESGGGVVQPGRSLRLSCAASGFTFSSYGMHWVRQAPGKGLEWVAVISYDGSNKYYADSVKGRFTISRDNSKNTLYLQMNSLRAEDTAVYYCARIMGYDYGDYDVVDYWGQGTLVTVSSGSASAPKLEEGEFSEARVQSALTQPRSVSGSPGQSVTISCTGTSSDVGGYNYVSWYQQHPGKAPKLMIYDVSKRPSGVPDRFSGSKSGNTASLTISGLQAEDEADYYCCSYAGSYTWVFGGGTKLTVL
Outgoing: 41.9 ng/mL
